- target system: JAK-3 (Homo sapiens (Human))
- Sequence (P52333 whole entry): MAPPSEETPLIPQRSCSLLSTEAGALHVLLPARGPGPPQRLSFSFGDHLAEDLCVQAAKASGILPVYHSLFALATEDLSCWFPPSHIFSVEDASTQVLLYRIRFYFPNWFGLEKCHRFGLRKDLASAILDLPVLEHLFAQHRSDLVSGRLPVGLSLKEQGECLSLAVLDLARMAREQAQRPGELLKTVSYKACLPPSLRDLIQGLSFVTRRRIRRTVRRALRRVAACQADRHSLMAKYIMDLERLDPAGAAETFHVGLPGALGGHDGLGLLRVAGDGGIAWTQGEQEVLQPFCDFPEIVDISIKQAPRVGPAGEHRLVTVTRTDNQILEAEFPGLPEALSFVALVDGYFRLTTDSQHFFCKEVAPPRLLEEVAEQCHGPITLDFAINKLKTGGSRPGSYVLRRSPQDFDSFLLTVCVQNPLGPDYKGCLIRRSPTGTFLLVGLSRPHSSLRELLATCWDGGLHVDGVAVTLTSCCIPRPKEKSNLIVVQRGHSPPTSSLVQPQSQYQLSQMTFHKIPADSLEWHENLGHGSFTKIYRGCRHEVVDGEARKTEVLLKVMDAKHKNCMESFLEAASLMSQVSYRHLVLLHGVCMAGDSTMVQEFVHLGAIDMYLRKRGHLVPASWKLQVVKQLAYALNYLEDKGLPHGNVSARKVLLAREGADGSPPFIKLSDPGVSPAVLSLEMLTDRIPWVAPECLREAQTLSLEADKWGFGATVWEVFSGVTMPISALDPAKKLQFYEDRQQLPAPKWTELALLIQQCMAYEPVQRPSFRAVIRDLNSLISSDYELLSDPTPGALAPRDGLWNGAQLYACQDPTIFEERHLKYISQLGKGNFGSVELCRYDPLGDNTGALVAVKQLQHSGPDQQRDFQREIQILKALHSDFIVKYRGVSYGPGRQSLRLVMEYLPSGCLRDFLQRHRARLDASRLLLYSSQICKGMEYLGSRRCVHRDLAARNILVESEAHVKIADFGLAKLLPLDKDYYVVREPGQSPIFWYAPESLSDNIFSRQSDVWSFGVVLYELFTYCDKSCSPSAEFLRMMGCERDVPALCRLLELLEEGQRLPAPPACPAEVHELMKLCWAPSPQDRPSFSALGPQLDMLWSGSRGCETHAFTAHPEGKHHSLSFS
- assay protocol: Inhibition test on JAK-3 kinase (FRET peptide substrate assay)
- Type: biochemical
- condition details: kinase 1 nM, 1 h at room temperature; read-out: IC50 (nM) JAK-3
This section presents compounds with their documented IC50 values.

- record smiles: "C=CC(=O)Nc1cccc(Cn2ncc3cnc(Nc4ccc(N5CCN(C)CC5)cc4)nc32)c1"
  IC50: "6.1 nM"
- record smiles: "C/C=C/C(=O)Nc1cccc(Cn2ncc3cnc(Nc4cnn(C)c4)nc32)c1"
  IC50: "2.1 nM"
- record smiles: "C=CC(=O)Nc1ccc(Cn2ncc3cnc(Nc4ccc(N5CCOCC5)cc4)nc32)cc1"
  IC50: "1.7 nM"
- record smiles: "C=CC(=O)Nc1ccc(Cn2ncc3cnc(Nc4ccccc4)nc32)cc1"
  IC50: "2.8 nM"
- record smiles: "C/C=C/C(=O)Nc1cccc(Cn2ncc3cnc(Nc4cnn(CCOC)c4)nc32)c1"
  IC50: "3 nM"

----------
This section presents compounds with their documented IC50 values.
- target system: JAK-1 (Homo sapiens (Human), UniProt P23458)
- Sequence (P23458 whole entry): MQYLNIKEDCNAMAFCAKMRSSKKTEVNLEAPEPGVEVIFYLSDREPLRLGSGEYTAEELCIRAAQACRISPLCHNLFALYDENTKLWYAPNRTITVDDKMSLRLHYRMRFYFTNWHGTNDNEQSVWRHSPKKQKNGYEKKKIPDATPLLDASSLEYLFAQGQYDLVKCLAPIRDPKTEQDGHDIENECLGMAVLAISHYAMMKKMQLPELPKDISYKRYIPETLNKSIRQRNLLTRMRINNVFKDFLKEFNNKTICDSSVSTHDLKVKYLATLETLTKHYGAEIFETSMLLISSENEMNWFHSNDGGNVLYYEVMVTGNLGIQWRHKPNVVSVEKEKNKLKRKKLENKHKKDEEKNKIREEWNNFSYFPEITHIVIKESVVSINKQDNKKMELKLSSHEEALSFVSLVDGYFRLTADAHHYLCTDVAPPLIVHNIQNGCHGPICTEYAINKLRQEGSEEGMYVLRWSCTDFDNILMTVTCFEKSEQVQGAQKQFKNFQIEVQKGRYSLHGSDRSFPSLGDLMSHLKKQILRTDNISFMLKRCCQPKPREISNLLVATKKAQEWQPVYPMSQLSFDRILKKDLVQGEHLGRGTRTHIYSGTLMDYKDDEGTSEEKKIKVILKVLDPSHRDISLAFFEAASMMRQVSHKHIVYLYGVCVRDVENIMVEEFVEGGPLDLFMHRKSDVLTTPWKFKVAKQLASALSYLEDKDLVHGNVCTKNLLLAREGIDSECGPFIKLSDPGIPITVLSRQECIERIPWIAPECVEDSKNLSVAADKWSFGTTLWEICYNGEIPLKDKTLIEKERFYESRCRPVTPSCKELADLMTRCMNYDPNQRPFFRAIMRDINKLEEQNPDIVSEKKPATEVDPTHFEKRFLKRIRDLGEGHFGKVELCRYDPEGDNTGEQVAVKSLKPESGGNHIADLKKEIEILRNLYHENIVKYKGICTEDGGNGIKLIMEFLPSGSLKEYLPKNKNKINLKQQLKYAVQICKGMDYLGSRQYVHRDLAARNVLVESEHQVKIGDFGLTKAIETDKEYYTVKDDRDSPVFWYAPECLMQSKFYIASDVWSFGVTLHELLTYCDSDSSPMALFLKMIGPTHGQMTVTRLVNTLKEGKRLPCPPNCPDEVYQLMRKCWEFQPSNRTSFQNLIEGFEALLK
- assay protocol: Inhibition test on JAK-1 kinase (FRET peptide substrate assay)
- Format: biochemical
- condition details: kinase 1 nM, 1 h at room temperature
- Excerpt: Experiment Example (Inhibition Tests on JAK-1, JAK-2 and JAK-3 Kinases) To evaluate the inhibitory activity of the compound on JAK-1, JAK-2 and JAK-3 kinases A proteolytic enzyme is coupled to exert different proteolysis on a specific phosphorylated and nonphosphorylated peptide substrate based on fluorescence resonance energy transfer (FRET). […]

- record smiles: "C=CC(=O)Nc1cccc(Cn2ncc3cnc(Nc4ccc(F)cc4)nc32)c1"
  IC50 / nM: 1580
- record smiles: "C=CC(=O)Nc1cccc(Cn2ncc3cnc(Nc4ccc(N5CCN(C)CC5)cc4)nc32)c1"
  IC50 / nM: 942
- record smiles: "C/C=C/C(=O)Nc1cccc(Cn2ncc3cnc(Nc4cnn(CCO)c4)nc32)c1"
  IC50 / nM: 940
- record smiles: "C/C=C/C(=O)Nc1ccc(Cn2ncc3cnc(Nc4ccccc4)nc32)cc1"
  IC50 / nM: 2400
- record smiles: "C/C=C/C(=O)Nc1ccc(Cn2ncc3cnc(Nc4ccc(F)cc4)nc32)cc1"
  IC50 / nM: 880
- record smiles: "C=CC(=O)Nc1cccc(Cn2ncc3cnc(Nc4ccccc4)nc32)c1"
  IC50 / nM: 901
- record smiles: "C=CC(=O)Nc1ccc(Cn2ncc3cnc(Nc4ccc(N5CCN(C)CC5)cc4)nc32)cc1"
  IC50 / nM: 2850
- record smiles: "C/C=C/C(=O)Nc1ccc(Cn2ncc3cnc(Nc4cnn(C)c4)nc32)cc1"
  IC50 / nM: 940
- record smiles: "C=CC(=O)Nc1ccc(Cn2ncc3cnc(Nc4ccccc4)nc32)cc1"
  IC50 / nM: 1990
- record smiles: "C/C=C/C(=O)Nc1ccc(Cn2ncc3cnc(Nc4ccc(N5CCOCC5)cc4)nc32)cc1"
  IC50 / nM: 960
- record smiles: "C=CC(=O)Nc1ccc(Cn2ncc3cnc(Nc4ccc(N5CCOCC5)cc4)nc32)cc1"
  IC50 / nM: 934
- record smiles: "C/C=C/C(=O)Nc1ccc(Cn2ncc3cnc(Nc4cnn(CCO)c4)nc32)cc1"
  IC50 / nM: 1120
- record smiles: "C=CC(=O)Nc1cccc(Cn2ncc3cnc(Nc4ccc(N5CCOCC5)cc4)nc32)c1"
  IC50 / nM: 1000
- record smiles: "C/C=C/C(=O)Nc1cccc(Cn2ncc3cnc(Nc4ccccc4)nc32)c1"
  IC50 / nM: 830
- record smiles: "C=CC(=O)Nc1cccc(Cn2ncc3cnc(Nc4cnn(CCO)c4)nc32)c1"
  IC50 / nM: 829
